- Test system: PRKX
- assay_setup: concentration: 1 μM, replicates: in singlicate; n = 1;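 note: KINOMEscan kinase panel screen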
List of %Inh values.
attribute_measured: %Inh (%)

compound: CCC(=O)c1c(-c2ccccc2)c2cc(Cl)ccc2c(=O)n1Cc1ccc(C(=O)O)cc1
readout_unit: %
observed: 0
--
compound: C[C@@H]1CC[C@H](C(=O)NC2CCCCC2)CN1c1cc(-c2ccc3c(N)n[nH]c3c2)nc(N)n1 [GSK2291363]
readout_unit: %
observed: 84
--
compound: CCCNC(=O)Nc1ccc(Oc2ncnc3ccn(C)c23)cc1
readout_unit: %
observed: 0
--
compound: COc1cc2ncn(-c3cc(OCc4ccncc4Br)c(C(N)=O)s3)c2cc1OC [GW854278]
readout_unit: %
observed: 26
--
compound: Cl.NS(=O)(=O)c1cccc(Nc2cc(-c3ccc(F)cc3)n[nH]2)c1 [GW824645]
readout_unit: %
observed: 0
--
compound: Cc1ccc(-c2ccc3c(ccc4sc5c(c43)NC[C@@H](C)N=C5N(C)C)n2)cn1
readout_unit: %
observed: 0
--
compound: COc1cccc(C2=C(Nc3cccc(C(=O)O)c3)C(=O)NC2=O)c1 [SB-390770]
readout_unit: %
observed: 7
--
compound: COc1cccc(C2=C(N(C)c3ccccc3)C(=O)NC2=O)c1 [SB-334865]
readout_unit: %
observed: 25
--
compound: Cl.c1ccc(Cn2cnc3cc(Nc4ncnc5ccccc45)ccc32)cc1 [GW272142]
readout_unit: %
observed: 31
--
compound: Cc1c(Cn2c(C)nn3c(=O)cc(N4CCO[C@H](C)C4)nc23)cccc1C(F)(F)F [GSK2373690]
readout_unit: %
observed: 29
--
compound: O=C(Nc1n[nH]c2nc(-c3ccccc3)c(Br)cc12)C1CC1 [SB-708998]
readout_unit: %
observed: 0
--
compound: COc1ccc(-c2coc3ccc(-c4nnc(SCc5cccc(C#N)c5)o4)cc23)cc1
readout_unit: %
observed: 0
--
compound: CCC(=O)c1c(-c2ccccc2)c2cc(Cl)ccc2c(=O)n1Cc1cc(S(C)(=O)=O)n(CCC(C)(C)O)n1
readout_unit: %
observed: 30

====

- System: VEGFR2
- Construct: gene KDR
- assay_setup: concentration: 1 μM, replicates: in singlicate; n = 1
# binarize %Inh: threshold 3% inclusive, high side Satisfied, low side Not satisfied

compound: Cl.c1ccc(Cn2cnc3cc(Nc4ncnc5ccccc45)ccc32)cc1
label: Not satisfied
--
compound: CCC(=O)c1c(-c2ccccc2)c2cc(Cl)ccc2c(=O)n1Cc1cc(S(C)(=O)=O)n(CC(F)F)n1
label: Not satisfied
--
compound: O=C(Nc1n[nH]c2nc(-c3ccccc3)c(Cl)cc12)C1CC1
label: Satisfied
--
compound: O=C(Nc1n[nH]c2nc(-c3ccccc3)c(Br)cc12)C1CC1
label: Not satisfied
--
compound: COc1ccc(Nc2nccc(N3CCC(NS(=O)(=O)c4ccc(NC(C)=O)cc4)C3)n2)cc1 (stereo not drawn)
label: Not satisfied
--
compound: COc1cc2ncn(-c3cc(OCc4ccc(S(C)(=O)=O)cc4)c(C(N)=O)s3)c2cc1OC
label: Satisfied
--
compound: COc1ccc(CNC(=O)NC2CCN(c3ccnc(Nc4ccc(F)cc4)n3)C2)cc1 (stereo not drawn)
label: Satisfied
--
compound: COc1ccc(-c2cc3c(C)nc(N)nc3n([C@H]3CC[C@H](O)CC3)c2=O)cn1
label: Not satisfied
--
compound: CCn1c(-c2nonc2N)nc2ccccc21
label: Satisfied
--
compound: CCCC(=O)Nc1n[nH]c2ncc(-c3cccc4ccccc34)cc12
label: Satisfied
--
compound: Nc1nccc2scc(-c3ccc4c(c3)CCN4C(=O)Cc3ccccc3)c12
label: Satisfied
--
compound: O=C(Nc1n[nH]c2cc(-c3ccccc3F)ccc12)C1CC1
label: Satisfied
--
compound: O=C(NCc1cccs1)c1cc(C(=O)c2c(Cl)cccc2Cl)c[nH]1
label: Not satisfied
--
compound: Cc1cccc(-c2nc(Nc3ccc4c(cnn4C)c3)c3ccccc3n2)n1
label: Not satisfied
--
compound: CCn1c(-c2ccoc2)nc2cnccc21
label: Satisfied
--
compound: O=c1cc(N2CCOCC2)nc2n(Cc3ccc(F)c(Cl)c3)ccn12
label: Satisfied
--
compound: COc1cc2ncn(-c3cc(OCc4ccncc4)c(C(N)=O)s3)c2cc1OC
label: Satisfied
